conditions: buffer; pH 7.4; 200.0 µM
Binary call on solubility kinetic: y from 40 µg/mL upward, n beneath that.

## Input Identify whether the reported solubility kinetic of the following compound is 40 µg/mL or greater: "CCCc1cc(=O)[nH]c(SCC(=O)NCc2ccc3c(c2)OCO3)n1"
## Output y

## Input Record: "CCOC(=O)C(=O)c1c(-c2ccccc2)nc2ccccn12"
## Output n

## Input Could you do the same for "Cc1cc(C(=O)NCc2ccc3c(c2)OCO3)ccc1[N+](=O)[O-]" , please?
## Output n

## Input Now consider "O=C(COC(=O)c1ccc2ccccc2c1O)Nc1ccccc1" and answer again.
## Output n

## Input And for "O=C(Nc1ccc(NC(=O)c2cccnc2)cc1)c1ccccc1" ?
## Output n

## Input What about "CCSC1=N/C(=C\c2ccccc2)C(=O)N1c1ccc(OC)cc1" ?
## Output n

## Input Quick one: CC12CN3CC(C)(CN(C1)C3c1ccc(F)cc1)C2 (stereo not given)
## Output n

## Input Another compound to check: "O=C(NC1=NCCS1)c1ccc(F)c(S(=O)(=O)N2CCOCC2)c1"
## Output y

## Input Field entry: "O=[N+]([O-])c1ccccc1S(=O)(=O)Nc1cccc2cccnc12"
## Output n

## Input CCCCC(CC)C(=O)N1CCN(C(=O)c2ccco2)CC1 (stereo not given) , same question.
## Output y

## Input Continue with "COc1cc(F)ccc1S(=O)(=O)NCc1cccnc1"
## Output y

---

solubility kinetic overview
settings: buffer; pH 7.4; 200.0 µM
The reply should be a number in µg/mL, with the unit left off.

Take a look at these entries with their results.
## Input Quick one: solubility kinetic of "Cc1ccc(O)c(Nc2c3ccccc3nc3ccccc23)c1" ?
## Output 1.5

## Input Would you mind doing "CC(C)CN1C(=O)c2ccc(NC(=O)c3ccco3)cc2C1=O" as well?
## Output 4.2

## Input Now this one: "Cc1csc(NC(=S)NC(=O)c2ccccc2)n1"
## Output 1

## Input Same thing, different compound: O=C(NCC1CCCO1)c1ccc(NC(=O)c2ccc(Br)cc2)cc1 (configuration not stated)
## Output 1.2

## Input What would you report for "FC(F)(F)c1cc(Nc2ccccc2)nc(-c2ccccn2)n1" ?
## Output 2.9

New cases:
## Input Given the compound "CC(=O)c1cccc(Nc2c([N+](=O)[O-])c(=O)oc3ccccc23)c1" , what is its reported solubility kinetic?
## Output 0.9

## Input Request: "O=C(COC(=O)c1ccc(Cl)nc1)Nc1ccc(Cl)cc1"
## Output 6.4

## Input Request: "CC(=O)c1c(C)[nH]c(C(=O)N2CCN(c3ccccn3)CC2)c1C"
## Output 42.4

---

This section presents compounds with their documented solubility kinetic values.
conditions: buffer; pH 7.4; 200.0 µM
State just the number; it will be interpreted in µg/mL.

## Input Entry under review: "COc1ccccc1N1CC=C(c2cccc([N+](=O)[O-])c2)NC1=O" . Reported solubility kinetic?
## Output 39.8

## Input What would you report for "CCOc1ccc(OCCn2c(=S)[nH]c3ccccc32)cc1" ?
## Output 0.9

## Input Another compound to check: O=C(NC1CCS(=O)(=O)C1)c1ccc(Br)o1 (stereo not drawn)
## Output 32.2

## Input How about this compound: "CC1(C)c2cc(Cl)ccc2-n2c1cc(O)c(-c1ccccc1)c2=O"
## Output 47.8

## Input Please answer likewise for O=C1CC(C(=O)N2CCCc3ccccc32)CN1c1ccc(F)cc1 (stereo not drawn)
## Output 46.5

## Input Continue with "NC(=O)NC(=O)COC(=O)c1cccnc1Nc1ccccc1F"
## Output 4.6

## Input Can you handle C=CCNC(=O)C1CC1(c1cccc(C)c1)c1cccc(C)c1 (stereo not drawn) next?
## Output 1.7

## Input Same again, this time with "CCN(CC)CCNC(=O)c1cc2cc3ccc(OC)cc3nc2o1"
## Output 45.9

## Input What would you report for "CCN(CC)c1nc2c(c(=O)n(C)c(=O)n2C)n1CCCc1ccccc1" ?
## Output 50.7

## Input Same lookup for CC1(C)CC(NCc2ccccc2)CCO1.Cl (stereo not drawn) , please.
## Output 34.2

Further cases:
## Input Item under review: "CC(=O)Nc1ccc(C(=O)OCC(=O)N(c2ccccc2)C2CCCCC2)cc1" . Reported solubility kinetic?
## Output 3.8

## Input And then "Cc1ccc(C)c(OCC(=O)Nc2ccncc2)c1" , what is it?
## Output 37

---

conditions: buffer; pH 7.4; 200.0 µM
Each record here notes measured solubility kinetic.

Examples with answers:
## Input Quick check: solubility kinetic of "COC(=O)c1c(C)oc(C)c1S(=O)(=O)NCc1ccco1" ?
## Output > 0.047 mg/mL

## Input Try "Cc1ccccc1-c1nc2sc(C)c(C)c2c(=O)o1" next.
## Output < 0.0006 mg/mL

## Input Follow-up item: "COc1ccc(CSc2nc(C)cc(C)c2C#N)cc1"
## Output 0.0027 mg/mL

## Input Follow-up item: COc1cccc(N2C(=O)C3C(C2=O)C3(c2ccccc2)c2ccccc2)c1 (configuration not stated)
## Output 0.0063 mg/mL

## Input And "O=[N+]([O-])c1cnn2cc(Br)cnc12" ?
## Output > 0.0365 mg/mL

## Input Try this compound too: "Cc1noc(C)c1S(=O)(=O)Nc1cccc(C(F)(F)F)c1"
## Output > 0.048 mg/mL

## Input Try the compound "CCOc1ncccc1C(=O)OCC(=O)N1CCC(C)CC1"
## Output > 0.046 mg/mL

## Input And for "O=[N+]([O-])c1ccc(NCCCO)c(S(=O)(=O)N2CCOCC2)c1" ?
## Output 0.0488 mg/mL

## Input Next up: "Cn1c(SCC(=O)N2CCCC2)nc2ccccc21"
## Output > 0.0413 mg/mL

## Input Same read-out for COc1cccc(NC(=O)C2CCOC2=O)c1 (configuration not stated) ?
## Output > 0.0353 mg/mL

Further cases:
## Input Query (compound): "C[n+]1ccn(CC(=O)c2cccs2)c1.[Br-]" ; field requested: solubility kinetic
## Output 0.039 mg/mL

## Input Ok, now CNC(=O)CC1C(=O)N(C)C(=S)N1NC(=O)c1ccccc1 (configuration not stated)
## Output > 0.0481 mg/mL

---

details: buffer; pH 7.4; 200.0 µM
value_type: solubility kinetic

## Input Name the reported solubility kinetic value associated with the molecule "COC(=O)c1cc(C)ccc1OCc1ccc([N+](=O)[O-])cc1"
## Output < 0.6 µg/mL

## Input // repeat for COc1ccc(C(=O)OC2CC3CCC(C2)[N+]3(C)[O-])cc1OC (stereo unspecified) and report
## Output 47.8 µg/mL

## Input Input "CC(C)(C)c1ccc(C(=O)O/N=C(\N)c2ccccn2)cc1"
## Output 2.4 µg/mL

## Input Cool, now "CC(C)CCn1cnc2c1c(=O)[nH]c(=O)n2Cc1ccccc1"
## Output 29.8 µg/mL

## Input And for "COCCSc1ccccc1C(=O)Nc1cc(C)cc(C)c1" ?
## Output 41.2 µg/mL

## Input Request: "Cc1ccc(S(=O)(=O)N2CCC(C(=O)NCC3CCCCC3)CC2)cc1"
## Output 1.6 µg/mL

---

settings: buffer; pH 7.4; 200.0 µM
This section presents compounds with their documented solubility kinetic values.
Lab book: enter the figure in µg/mL, no units written.

Examples with answers:
## Input Look up solubility kinetic: CC1CC(C)CN(CCOc2cccc3ccccc23)C1 (stereo unspecified)
## Output 34.1

## Input What about this compound? "Cl.Nc1cc(Cl)ccc1N1CCCC1"
## Output 10.6

## Input Also "COc1ccc2c(CC(=O)Nc3ccc(OC)nc3)coc2c1" , if possible.
## Output 14.8

## Input Now try "CCOC(=O)C1CCN(CC(=O)c2ccc(O)c(C)c2O)CC1" .
## Output 46.3

## Input Now give it for "Cc1ccc(C(=O)Nc2nc(C)c(C(=O)N(C)C)s2)o1" too.
## Output 40.3

## Input Next: "Cc1sc2ncnc(N3CCC(C(=O)Nc4ccc(OC(F)F)c(Cl)c4)CC3)c2c1C"
## Output 5.7

Now let's try a different one.
## Input Entry "O=S(=O)(NCCc1ccccc1)c1ccc(F)cc1" has what solubility kinetic?
## Output 40.9

---

Documented solubility kinetic across a set of molecules
conditions: buffer; pH 7.4; 200.0 µM
Write the value in µg/mL as a bare number.

Record excerpt, results attached:
## Input Consider the molecule COc1cc2c(cc1OC)C(C)N(C(=O)Nc1cc(C)cc(C)c1)CC2 (stereo not drawn) and give its measured solubility kinetic.
## Output 2.7

## Input And what about the molecule "CNS(=O)(=O)c1cccc(C(=O)OCC(=O)Nc2nc(OC)cc(OC)n2)c1" ?
## Output 15

Further cases:
## Input For the molecule Cc1ccc(C)c(NC(=O)C2CCCN(c3cnccn3)C2)c1 (stereo not drawn) , what solubility kinetic is on record?
## Output 1.7

## Input Note, next up: "COc1nc(N(C)C)nc(N(C#N)S(=O)(=O)c2ccc(C)cc2)n1"
## Output 51.7

## Input What about this molecule? "O=C(CCc1nc2ccccc2s1)OCC(=O)c1ccc[nH]1"
## Output 14.2
